- assayed target: recombinant human PAI-1 (Homo sapiens)
- Sequence (P05121 24-402): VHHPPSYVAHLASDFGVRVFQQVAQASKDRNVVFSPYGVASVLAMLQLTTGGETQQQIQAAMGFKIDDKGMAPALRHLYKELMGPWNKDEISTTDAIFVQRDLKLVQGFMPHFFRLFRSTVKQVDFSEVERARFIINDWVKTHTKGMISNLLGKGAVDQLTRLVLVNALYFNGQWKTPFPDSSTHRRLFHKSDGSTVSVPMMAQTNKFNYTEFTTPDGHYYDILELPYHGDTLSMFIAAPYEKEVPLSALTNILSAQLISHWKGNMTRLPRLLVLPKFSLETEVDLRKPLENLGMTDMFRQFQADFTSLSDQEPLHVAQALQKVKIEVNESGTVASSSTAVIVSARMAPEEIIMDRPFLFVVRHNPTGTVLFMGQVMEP
- assay comment: Test Example 2: Human PAI-1 Inhibitory Activity (pH 7.4 HEPES buffer, 10 minutes incubation with two-chain tPA)
- Type: biochemical
- Set-up: purchased Molecular Innovations, Inc
- assay setup: read-out: Inhibition Rate of PAI-1 Activity (%)
Given measured inhibition at 0.3 µM, output met if it is greater than or equal to 30% and not met if not.

[[record]]
structure = "CC(C)(C)c1cccc(Oc2ccc(-c3ccc(OC(F)(F)F)cc3)cc2OCC(=O)O)c1"
assigned_class = "not met"

[[record]]
structure = "CC(C)(C)c1ccc(Oc2cc(-c3ccc(OC(F)(F)F)cc3)ccc2CC(=O)O)cc1"
assigned_class = "not met"

[[record]]
structure = "CC(C)(C)c1ccc(Oc2cc(OCC(=O)O)cc(-c3ccc(OC(F)(F)F)cc3)c2)cc1"
assigned_class = "not met"

[[record]]
structure = "CCCOc1ccc(-c2ccc(OC(F)(F)F)cc2)cc1N(Cc1ccc(C(C)(C)C)cc1)C(=O)C(=O)O"
assigned_class = "not met"

[[record]]
structure = "CC(C)(C)c1ccc(-c2ccc(/C=C/C(=O)O)c(Oc3ccc(OC(F)(F)F)cc3)c2)cc1"
assigned_class = "met"

